Origin of the recorded values: paper PMC4377293

# MEASUREMENT TARGET: human PRODH2 157–515 (Homo sapiens, UniProt Q9UF12)
# Sequence (Q9UF12 81-439 limits assumed): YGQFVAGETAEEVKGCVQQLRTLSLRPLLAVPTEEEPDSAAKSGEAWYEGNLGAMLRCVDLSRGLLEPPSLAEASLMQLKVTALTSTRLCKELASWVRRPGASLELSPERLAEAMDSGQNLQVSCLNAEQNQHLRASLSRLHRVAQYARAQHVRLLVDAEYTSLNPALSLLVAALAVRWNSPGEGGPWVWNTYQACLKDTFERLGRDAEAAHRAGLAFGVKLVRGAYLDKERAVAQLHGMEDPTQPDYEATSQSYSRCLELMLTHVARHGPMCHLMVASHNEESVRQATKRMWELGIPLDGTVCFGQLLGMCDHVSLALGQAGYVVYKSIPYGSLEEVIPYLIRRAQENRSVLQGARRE
RECORDED ENDPOINT: Ki (µM)

>>> observed_value("CC1=CC(=O)c2ccccc2C1=O")
306
